The reported numbers originate from patent US20240084019A1.

tgt: T1, Biot-C7 peptide: biotinylated NH2-PYHTLNLLELHHTAMPGSVFSLGLPLATALAIA-COOH (human, biotinylated (position not given))
T1 construct: also called C7biot; biotinylated antigen-specific peptide
T1 peptide: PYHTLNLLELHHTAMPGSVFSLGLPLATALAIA
assayProcedure: activity ELISA on biotinylated C7 peptide; column head printed ED50 (ng/ml)
Measured EC50 by item

[
  {
    "binder": "anti-CMKLR1 antibody 2G1 (parental chimeric antibody) (antibody, human IgG1, V domains shown, also called 2G1 wt; 2G1 WT) VH: EVQLVASGGGLVQPGGSLKLSCAASGFTFSSYGMSWVRQTPDRRLELVATINRYGGSTYYPDSVKGRFTISRDNAKNTLYLQMSSLKSEDTAMYYCPRLIYYGNEGDSWGQGTTLTVSS VL: QIVLTQSPAIMSASPGEKVTMTCSASSSVSFMHWYQQKSGTSPKRWIYDTTKLTSGVPARFSGSGSGTFYSLTISSMEAEDAATYYCQQWNSKPPLTFGPGTKLELKR",
    "EC50 [µg/mL]": 0.269
  },
  {
    "binder": "HCLD humanized anti-CMKLR1 antibody (antibody, human IgG1, V domains shown, Variable domains only; fused to constant fragment of human immunoglobulin (human IgG1, kappa)) VH: EVQLVESGGGLVQPGGSLRLSCAASGFTFSSYGMSWVRQAPGKGLELVATINRYGGSTYYAASVKGRFTISRDNSKNTLYLQMNSLRAEDTAVYYCPKLIYYGNEGDSWGQGTLVTVSS VL: AIQLTQSPSSLSASVGDRVTITCRASQSVSFLHWYQQKPGKAPKRWIYDATKLTSGVPSRFSGSGSGTDFTLTISSLQPEDFATYYCQQWQSKPPLTFGGGTKVEIK",
    "EC50 [µg/mL]": 0.333
  },
  {
    "binder": "HALA humanized anti-CMKLR1 antibody (VHvAv3-23*04 + VLvAv1-13*01) (antibody, human IgG1, V domains shown, Variable domains only; also called germline antibody HALA; IGHV3-23*04 + IGKV1-13*02) VH: EVQLVESGGGLVQPGGSLRLSCAASGFTFSSYGMSWVRQAPGKGLELVATINRYGGSTYYPDSVKGRFTISRDNSKNTLYLQMNSLRAEDTAVYYCPRLIYYGNEGDSWGQGTLVTVSS VL: AIQLTQSPSSLSASVGDRVTITCSASSSVSFMHWYQQKPGKAPKRWIYDTTKLTSGVPSRFSGSGSGTDYTLTISSLQPEDFATYYCQQWNSKPPLTFGGGTKVEIK",
    "EC50 [µg/mL]": 0.557
  },
  {
    "binder": "HDLD humanized anti-CMKLR1 antibody (antibody, human IgG1, V domains shown, Variable domains only; fused to constant fragment of human immunoglobulin (human IgG1, kappa)) VH: EVQLVESGGGLVQPGGSLRLSCAASGFTFSSYAMSWVRQAPGKGLELVATINRYGGSTYYAASVKGRFTISRDNSKNTLYLQMNSLRAEDTAVYYCPKLIYYGNEGDSWGQGTLVTVSS VL: AIQLTQSPSSLSASVGDRVTITCRASQSVSFLHWYQQKPGKAPKRWIYDATKLTSGVPSRFSGSGSGTDFTLTISSLQPEDFATYYCQQWQSKPPLTFGGGTKVEIK",
    "EC50 [µg/mL]": 0.195
  },
  {
    "binder": "HDLC humanized anti-CMKLR1 antibody (antibody, human IgG1, V domains shown, Variable domains only; fused to constant fragment of human immunoglobulin (human IgG1, kappa)) VH: EVQLVESGGGLVQPGGSLRLSCAASGFTFSSYAMSWVRQAPGKGLELVATINRYGGSTYYAASVKGRFTISRDNSKNTLYLQMNSLRAEDTAVYYCPKLIYYGNEGDSWGQGTLVTVSS VL: AIQLTQSPSSLSASVGDRVTITCRASQSVSFLHWYQQKPGKAPKRWIYDATKLTSGVPSRFSGSGSGTDFTLTISSLQPEDFATYYCQQWNSKPPLTFGGGTKVEIK",
    "EC50 [µg/mL]": 0.197
  },
  {
    "binder": "HCLC humanized anti-CMKLR1 antibody (antibody, human IgG1, V domains shown, Variable domains only; fused to constant fragment of human immunoglobulin (human IgG1, kappa)) VH: EVQLVESGGGLVQPGGSLRLSCAASGFTFSSYGMSWVRQAPGKGLELVATINRYGGSTYYAASVKGRFTISRDNSKNTLYLQMNSLRAEDTAVYYCPKLIYYGNEGDSWGQGTLVTVSS VL: AIQLTQSPSSLSASVGDRVTITCRASQSVSFLHWYQQKPGKAPKRWIYDATKLTSGVPSRFSGSGSGTDFTLTISSLQPEDFATYYCQQWNSKPPLTFGGGTKVEIK",
    "EC50 [µg/mL]": 0.167
  }
]
